Where do the numbers come from? From ChEMBL document CHEMBL3507680.

I'd be grateful if you could share measured cytotoxicity at 70.5 h for these entries.
Test: Human HepG2 cell viability assay in 384 well format
Format: toxicity, cell-based
Design: dose 125 nL, time 70.5 hour; concentration not given beside the values
Settings: HepG2 cells, read-out: Inhibition
# number only, unit % dropped from output

cytotoxicity at 70.5 h reported for this compound CC(C)(O)CSCCNCc1ccc(Cl)c2cccnc12 : 12.8

In plain terms, Cn1ccnc1CNC(=O)c1ccnc(C2CCNCC2)c1 has a documented cytotoxicity at 70.5 h of -6.57

The recorded cytotoxicity at 70.5 h for CSCC[C@H](N)C(=O)NCc1cc2n(n1)CCCN(C(=O)C1CCC1)C2 is -4.43

The compound COCc1nc(CNC2CSCCSC2)no1 showed cytotoxicity at 70.5 h equal to -11.5

Reported cytotoxicity at 70.5 h for CCCn1cc(C(=O)N2CCCC(Cc3nccs3)C2)cn1 (centres undefined) was -4.77

In plain terms, COc1ccccc1OC1CN(C(=O)c2ccc(C(C)=O)s2)C1 has a documented cytotoxicity at 70.5 h of -10.9

Reported cytotoxicity at 70.5 h ( Cc1ncnc2c1CCN(C(=O)Cc1ccccn1)CC2 ) = -12.9

What the record says about CN1CCN(C(=O)c2cccs2)Cc2ccccc21 : cytotoxicity at 70.5 h is -0.544

Documented cytotoxicity at 70.5 h of O=S1(=O)NC2(CCCN(Cc3ccc(Cl)cc3)C2)COc2ccccc21 (centres undefined) : 22.5

# compound Cc1nnc(CN2CCCC(CCc3ccccc3C(F)(F)F)C2)o1 (centres undefined) ; its cytotoxicity at 70.5 h = -7.48

Kindly note the recorded cytotoxicity at 70.5 h for CN(C)S(=O)(=O)N1CCN(C(=O)c2cc(-c3ccc(Br)s3)n[nH]2)CC1 , which is -10.1

cytotoxicity at 70.5 h in this record for CNCc1cn(CC2CCN(CC(C)(C)CN3CCCC3)CC2)nn1 : -13.6

Documented cytotoxicity at 70.5 h of COc1ccccc1CC1CCCN(C(=O)c2cn[nH]c2C)C1 (centres undefined) : -10.8

Quick note, cytotoxicity at 70.5 h for Cc1ncsc1CN1C[C@H]2CC[C@@H]1CN(Cc1ccccc1)C2 landed at 30

Entry Cc1ccc(OCC(=O)Nc2ncccc2OC(F)F)cc1 , cytotoxicity at 70.5 h reported as -1.62

Value of measured cytotoxicity at 70.5 h for the entry CCC(NC(=O)c1ccco1)c1nc(C(F)(F)F)cs1 (centres undefined) : -6.77

Record CCc1ocnc1C(=O)N1CCCC1c1noc(C(C)C)n1 (centres undefined) . Reported cytotoxicity at 70.5 h: -11

According to the records, this compound COc1cccc(N2Cc3nc(=O)n(C(C)C)n3C2=O)c1 displays cytotoxicity at 70.5 h of -13.3

Just so you know, measured cytotoxicity at 70.5 h for Cc1cc(C(=O)N2CCCN(c3nccs3)CC2)c(C)n1C(C)C came out at 29.5

Short answer for O=C(CCCC1CCCC1)NS(=O)(=O)CC1CC1 : cytotoxicity at 70.5 h was -2.25

Form field cytotoxicity at 70.5 h, entry Cc1nn(C)c(C)c1C1SCC(=O)Nc2c1c(O)nn2C(C)C (centres undefined) : -28.8

// field: cytotoxicity at 70.5 h; key: c1ccc(Cc2nnc(CN3CCCC3Cn3cccn3)o2)cc1 (centres undefined) ; value = -1.31

Sample CC1CN(C(=O)Nc2cccc(CN3CCOC3=O)c2)CCO1 (centres undefined) ; cytotoxicity at 70.5 h observed: -9.66

So for Cn1nc(C#N)c2c1CN(C(=O)c1ccco1)CCC2 , the logged cytotoxicity at 70.5 h turned out to be 14.2

Form: compound = Cn1cc(N2CC3(CCN(Cc4cccnc4)CC3)OCC2=O)cn1 ; cytotoxicity at 70.5 h = -3.89

Lookup result for COc1ccc(CC(=O)N2CCc3nnc(N(C)C)cc3C2)cc1F ; measured cytotoxicity at 70.5 h: -2.52

Sample Cn1cc(-c2cnc3n2CCC32CCN(S(C)(=O)=O)CC2)cn1 ; cytotoxicity at 70.5 h observed: -0.823

response.value for COc1ncccc1CNC(=O)NCc1ccco1 (field: cytotoxicity at 70.5 h) = -1.48

// sample O=C(NCc1ccccc1)N1C[C@H]2CCN[C@H]2C1 , its cytotoxicity at 70.5 h was 26

The measured cytotoxicity at 70.5 h associated with CC(C)(CNC(=O)NCCOc1cccc(F)c1)C(N)=O reads -1.08

Measured cytotoxicity at 70.5 h of CCN1CCC(CC(=O)NCCc2nc(C)c(Cl)s2)CC1 : -6.45

// field: cytotoxicity at 70.5 h; key: CC(C)c1nnc2n1CCN(C(=O)c1ccc3cc[nH]c3c1)C2 ; value = 2.26

Quick note, cytotoxicity at 70.5 h for Cc1nn2c(=O)/c(=C\c3cccs3)sc2nc1=O landed at -5.48

The compound listed as Cc1ccc(CN2Cc3c(C(=O)N4CCCC4)nn(C)c3C2)s1 shows cytotoxicity at 70.5 h equal to 22.4

Lab note: C[C@@H]1CN(C2Cc3ccccc3C2)CC[C@@]1(O)C1CCOCC1 gave cytotoxicity at 70.5 h of -10.1

Looking up CNC(=O)CNC(=O)Nc1cc(-c2ccccc2)ns1 , I found its cytotoxicity at 70.5 h recorded as 29.7

Lookup result for O=C(c1ccoc1)N1CC[C@H]2[C@H]1CCN2CC1CC1 ; measured cytotoxicity at 70.5 h: -3.04

// sample O=C(NCc1nc2ccccc2[nH]1)c1cnn2c1OCCC2 , its cytotoxicity at 70.5 h was -1.96

Entry Cc1oc(-c2cccc(F)c2F)nc1CN(C)CCC(C)(C)O , cytotoxicity at 70.5 h reported as 26.5

// cytotoxicity at 70.5 h value for CC(C)N1CCC(Cc2cc(-c3cc(F)ccc3C(=O)O)ncn2)C1 (centres undefined) : -3

// recorded cytotoxicity at 70.5 h for Cc1ccc(CN2CCC3(CCN(S(=O)(=O)c4ccccc4)C3)C2)o1 (centres undefined) : 27.1

Looking up Cc1cnn(CC2CC2)c1NC(=O)c1cccnc1O , I see its cytotoxicity at 70.5 h listed as 14.4

The compound listed as Cn1cc(CN2CCn3cnc(COCC4CC4)c3C2)cn1 has a reported cytotoxicity at 70.5 h of 14.1

Just so you know, measured cytotoxicity at 70.5 h for Cc1noc(C)c1CN(C)Cc1nc(N)c2ccccc2n1 came out at 13.8

Just so you know, measured cytotoxicity at 70.5 h for Cc1nnc(NCCn2nc(C)c(Cl)c2C)o1 came out at -6.66

The reported cytotoxicity at 70.5 h of the compound CCc1c(C)sc2ncnc(N3CC[C@@H](N4CCOCC4)[C@H](O)C3)c12 was -4.12

Field cytotoxicity at 70.5 h (entry CC(O)(CNC(=O)c1cccnc1-n1cccn1)c1ccco1 (centres undefined) ) reads -4.51

Summary for this compound, Cc1nc(C)n(CC2CN(S(C)(=O)=O)Cc3nccn3C2)n1 (centres undefined) : cytotoxicity at 70.5 h is 9.77

Per the records, this compound ( O=C(NCCCO)c1nnsc1-c1ccccc1 ) has cytotoxicity at 70.5 h equal to -0.82
